# Assay Protocol: Elimination half life in Sprague-Dawley rat brain at 10 mg/kg, po
# Type: ADME, organism-based
# Parameters: dose 10 mg/kg, route oral
# Study Conditions: read-out: beta t1/2 (converted)
Metric: half-life (min)
Give bare numbers, in min.

Quick check: half-life of Cc1cc(N2CC[C@H](N3CCC[C@@H]3C)C2)ccc1NC(=O)C1CCOCC1 ?
228

----------
# Assay Protocol: AUC in Sprague-Dawley rat brain at 10 mg/kg, po
# Format: ADME, organism-based
# Design: dose 10 mg/kg, route oral
Metric: AUC (ng·h/mL)
Answers are plain numbers, in ng·h/mL.

Quick check: AUC of Cc1cc(N2CC[C@H](N3CCC[C@@H]3C)C2)ccc1NC(=O)C1CCOCC1 ?
4200
